Target: T1, human bradykinin B1 receptor (human, UniProt P46663 1-353)
T1 construct: whole, on cells; Assays were run on cell membrane preparations (50 ug/well), not on intact cells; HEK293T::GFP::hB1R membranes appear only in the saturation assay; also called hB1R; BDKRB1
T1 sequence (looked up): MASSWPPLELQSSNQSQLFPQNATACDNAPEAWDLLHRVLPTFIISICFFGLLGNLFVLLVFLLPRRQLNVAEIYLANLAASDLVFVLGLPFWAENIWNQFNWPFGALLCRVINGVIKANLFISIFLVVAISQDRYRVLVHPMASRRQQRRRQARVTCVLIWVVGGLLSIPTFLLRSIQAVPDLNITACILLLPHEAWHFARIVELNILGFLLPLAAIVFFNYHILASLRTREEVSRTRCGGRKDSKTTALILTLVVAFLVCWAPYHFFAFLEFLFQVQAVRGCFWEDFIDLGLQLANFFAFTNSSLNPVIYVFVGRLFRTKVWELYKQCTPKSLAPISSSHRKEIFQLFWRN
Experiment: competitive radioligand binding; hot ligand BK-AG-ARC 12.5 nM; CHO-K1 hB1R membranes
Reported Ki values for the following binders.
Numeric answer only, unit nM assumed.

- BINDER: "KRPXGXSPF (N-terminal D-Pra-Ahx- (D-propargylglycine, 6-aminohexanoic acid); Hyp (hydroxyproline) at position 4; Cha (beta-cyclohexylalanine) at position 6; D-Phe at position 9, Agonist-derived probe) [Peptide 1: D-Pra-Ahx-Lys-Arg-Pro-Hyp-Gly-Cha-Ser-Pro-(D-Phe)]"
  Ki (nM): 10.9

From here, focus on the item given below.
Give the measured Ki of KRPXGXSPF (N-terminal DTPA-Ahx- (printed 'DPA-Ahx' in Table 4); Hyp at position 4; Cha at position 6; D-Phe at position 9) [Peptide 2: DTPA-Ahx-Lys-Arg-Pro-Hyp-Gly-Cha-Ser-Pro-(D-Phe)] .
131

All figures here come from patent US20150238641A1.
